targetSystem: T1, GST-human NOGO-A56 (human)
T1 construct: Expressed in E. coli BL21 from pGEX-6P1 and purified on glutathione-sepharose; the GST tag is part of the protein in the assays; also called GST-Nogo-A 5+6; GST Nogo-A 5 + 6
T1 sequence (chain, as listed by the source limits assumed): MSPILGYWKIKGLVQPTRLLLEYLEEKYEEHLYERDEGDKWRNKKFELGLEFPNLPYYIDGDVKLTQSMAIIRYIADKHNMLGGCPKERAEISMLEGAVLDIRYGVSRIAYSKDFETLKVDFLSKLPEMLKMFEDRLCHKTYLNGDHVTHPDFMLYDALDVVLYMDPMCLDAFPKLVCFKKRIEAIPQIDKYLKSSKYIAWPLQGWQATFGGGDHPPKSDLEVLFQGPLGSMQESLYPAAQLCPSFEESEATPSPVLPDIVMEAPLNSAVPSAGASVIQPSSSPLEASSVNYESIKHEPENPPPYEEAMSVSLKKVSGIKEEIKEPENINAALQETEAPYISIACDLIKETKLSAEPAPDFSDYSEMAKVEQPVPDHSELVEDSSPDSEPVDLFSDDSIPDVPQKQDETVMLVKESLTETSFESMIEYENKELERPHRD
protocolSummary: SPR (Biacore), GST-human NOGO-A56 amine-coupled to CM5, antibody flowed over, 37 C
quantityKind: Kd

Record excerpt, results attached:
{"columns": ["binder", "Kd"],
 "data": [
  ["H20L16 (antibody, human IgG1, kappa, V domains shown, IgG1 (L235A, G237A) / kappa; CAMPATH-1H signal (1-19) left out) VH: QVQLVQSGAEVKKPGASVKVSCKASGYTFTSYWMHWVRQAPGQGLEWIGNINPSNGGTNYNEKFKSKATMTRDTSTSTAYMELSSLRSEDTAVYYCELGQGYWGQGTLVTVSS VL: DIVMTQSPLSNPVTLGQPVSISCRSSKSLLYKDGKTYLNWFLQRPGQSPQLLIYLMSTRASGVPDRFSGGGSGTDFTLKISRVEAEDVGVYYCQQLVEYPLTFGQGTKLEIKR", "1.51 nM"],
  ["H27L13 (antibody, human IgG1, kappa, V domains shown, IgG1 (L235A, G237A) / kappa; CAMPATH-1H signal (1-19) left out) VH: QVQLVQSGAEVKKPGASVKVSCKASGYTFTSYWMHWVKQRPGQGLEWIGNINPSNGGTNYNEKFKSKATLTVDKSTSTAYMELSSLRSEDTAVYYCELMQGYWGQGTLVTVSS VL: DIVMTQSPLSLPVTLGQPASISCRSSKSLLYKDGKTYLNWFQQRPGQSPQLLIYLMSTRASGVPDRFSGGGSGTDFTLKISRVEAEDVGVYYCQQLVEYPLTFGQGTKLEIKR", "0.641 nM"]
]}

Attention now turns to another entry.
Requested field: Kd. Item: HcLc (chimera of 2A10: murine 2A10 VH and VL with human IgG constant regions) (antibody, V domains shown, also called chimeric antibody; chimeric form of the parental antibody) VH: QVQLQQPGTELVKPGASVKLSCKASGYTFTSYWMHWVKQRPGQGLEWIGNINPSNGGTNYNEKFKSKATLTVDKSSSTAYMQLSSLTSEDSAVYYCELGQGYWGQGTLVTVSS VL: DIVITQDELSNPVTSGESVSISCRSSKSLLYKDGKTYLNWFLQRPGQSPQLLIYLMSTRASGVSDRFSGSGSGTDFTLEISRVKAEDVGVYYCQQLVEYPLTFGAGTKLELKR
1.46 nM
